Cited source for all entries: patent US20260297060A1

Experiment: Pharmacokinetics in female BALB/c nude mice bearing A375 xenografts, 1 day dosing (PK and PD study): plasma, tumor and brain concentrations, AUC
Type: in vivo
Settings: mouse, plasma, po, 10 mg/kg, 10 mg/kg p.o. BID × 1 day; post 1st dose; 8 h; read-out: Mean Concentration in Plasma ± SEM
MEASUREMENT NAME: concentration at 8 h (µg/mL)
Hi! Could you send only the number? It should be in µg/mL, unit omitted.

Query: concentration at 8 h; subject: CCN(C)S(=O)(=O)Nc1ccc(F)c(Oc2ccc3ncn([C@H]4COC5(CCN(C6CC7(C6)CN(c6cc8c(cc6F)c(N6CCC(=O)NC6=O)nn8C)C7)CC5)C4)c(=O)c3c2)c1C#N
2.92
